Assay: DUSP6 inhibitors restoring Erk phosphorylation by chemical complementation, primary imaging in DUSP6-transfected HeLa (AID 609)
Conditions: HeLa MKP-3 transfected, phospho-Erk imaging KS statistic; measured here: cell density z-score; at 10 µM; cells stimulated with TPA for 15 min
Note to self: class = bucket of z-score, per lower range: < -0.1; middle range: ≥ -0.1 and < 0.6; upper range: ≥ 0.6

COMPOUND | CATEGORY_LABEL
CC1(C)CC(NC(=O)C23CCC(C)(/C(=N/O)C2)C3(C)C)CC(C)(C)N1 (stereo unspecified) | lower range
O=C(O)c1ccc(OCCn2ccnc2)cc1 | lower range
Cc1nc2sccn2c(=O)c1CCN1CCC(=C(c2ccc(F)cc2)c2ccc(F)cc2)CC1 | upper range
Cc1nc(Sc2cccn2C)c(C(F)(F)F)c(=O)[nH]1 | lower range
O=C(Nc1ncn[nH]1)c1c(Cl)ccc(Cl)c1Cl | lower range
CC(C)Cc1[nH]c(=O)c(C#N)c2c1CCCC2 | lower range
COc1ccc(CNc2oc(COc3ccccc3Cl)nc2C#N)cc1 | lower range
O=C(O)CC(SCc1ccc(C(=O)O)o1)C(=O)O (stereo unspecified) | upper range
N#Cc1c(SCC(=O)O)nc(N2CCCCC2)c2c1CCCC2 | middle range
COC(=O)C1=C(C)N=C2SC(C)C(=O)N2C1c1cccc(F)c1 (stereo unspecified) | upper range
CCCOC(=O)C1[C@H]2C(=O)N(Cc3ccco3)C[C@]23C=C[C@H]1O3 (stereo partly specified) | lower range
COc1cc(-c2cc(C(F)(F)F)n3ncc(C(=O)O)c3n2)cc(OC)c1OC | middle range
O=C1C=C(O)CC(c2ccco2)C1 (stereo unspecified) | middle range
Cc1ccccc1C(=O)c1ccc2c(c1)n(C)c(=O)n2C | upper range
N#CC1=C(SCC(=O)c2ccc(Br)cc2)NC2=C(C(=O)CCC2)C1c1ccco1 (stereo unspecified) | upper range
Cc1ccc(/C=c2\sc3n(c2=O)CN(c2ccc(Br)cc2)CN=3)o1 | upper range
CCN=C1SC(C(=O)Nc2ccc(Cl)c(Cl)c2)CC(=O)N1CC (stereo unspecified) | upper range
COc1ccc2c(c1OC)C(=O)N1c3ccccc3C(=O)N(c3ccccc3)C21 (stereo unspecified) | middle range
CCOC(=O)C1=C(N)c2ccccc2CC1C(C)C (stereo unspecified) | upper range
N#CC(C(=O)Nc1ccc(Cl)c(Cl)c1)=C1Nc2ccccc2N1 | upper range
CC(=O)Oc1cc(C(C)C)c(OCCN(C)C)cc1C | middle range
CC(=O)N/C(=N/c1nc(C)cc(C)n1)Nc1ccc(NC(C)=O)cc1 | upper range
CCOC(=O)CCCCC(=O)NC(CO)C(=O)NC (stereo unspecified) | lower range
COc1ccc(C(=O)NCCCCCC(=O)O)cc1OC | lower range
Cc1cc2c(c(=O)n1CC1CCCO1)C(c1ccc3c(c1)OCO3)C(C#N)=C(N)O2 (stereo unspecified) | lower range
O=C(c1nsnc1-c1ccccc1O)N1CCCCC1 | middle range
Cn1c(=O)c2c(nc(N3CCN(Cc4ccccc4)CC3)n2CC(=O)c2ccccc2)n(C)c1=O | middle range
Cc1cc(C)n2c3c(c(C#N)c2n1)CC(C)(C)OC3 | middle range
CCOc1cccc(-c2nnc3sc(-c4ccco4)nn23)c1 | upper range
Cc1ccc(OCC(=O)N2CCC(N3CCCCCC3)CC2)cc1 | lower range
C=C1c2cc(OC)ccc2NC(=O)N1CC | middle range
Cc1cc(C)nc(NC(=O)c2ccc(OC(C)C)cc2)n1 | middle range
COc1ccc(OC)c(C2/C(=C(/O)c3cnn(-c4ccccc4)c3C)C(=O)C(=O)N2CCN(C)C)c1 (stereo unspecified) | lower range
Cc1c(C)c2cc(Cl)c(O)c(CN3CCCCC3)c2oc1=O | middle range
Cc1ccc(C(C)C)c(OCCNc2nc3c(c(=O)n(C)c(=O)n3C)n2C)c1 | lower range
COCc1cc(=O)[nH]c(Nc2nc3ccc(C)cc3o2)n1 | middle range
CCOC(=O)c1ccc(CC2S/C(=C(\C#N)C(C)=O)NC2=O)cc1 (stereo unspecified) | upper range
Oc1c(C=Nc2cccnc2)sc2ccccc12 | middle range
C[C@@H]1C[C@H](Nc2ccccc2)c2ccccc2N1C(=O)c1cccnc1 | upper range
N#Cc1c(N)nc(SCC(=O)NCCc2ccccc2)c(C#N)c1-c1cccs1 | lower range
O=C1OC2CCC1(c1ccccc1)C2 (stereo unspecified) | lower range
CN(C)c1ccc(C=NCCC2(O)CCOC(C)(C)C2)cc1 (stereo unspecified) | lower range
CN(C1CCS(=O)(=O)C1)S(=O)(=O)c1cccc2nsnc12 (stereo unspecified) | middle range
CCOC(=O)C1CCCN(c2nc3ccccc3nc2C(C#N)C(=O)OCCOC)C1 (stereo unspecified) | middle range
Cc1c(/C(O)=C2/C(=O)C(=O)N(CCCN3CCOCC3)C2c2ccncc2)cnn1-c1ccccc1 (stereo unspecified) | upper range

* * *

A collection of compounds and their measured inhibition
Assay: inhibitors of TNFa-induced NFkB p65 translocation, primary screen, imaging, HUVEC, MLSMR starter and 10KST1 sets (AID 438);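 note: compound added about 3h40 before a 20 min TNFalpha stimulation; signal is the nuclear over cytoplasmic p65 intensity ratio per well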
Settings: HUVEC TNFa-induced p65 nuclear translocation; at 2 µM, stronger effect = higher value, 0% TNFa-plus-vehicle, 100% no-TNFa wells
READOUT_KIND: inhibition (%)

COMPOUND | READOUT_KIND | REPORTED_VALUE
Cc1c(CCC#N)c(N2CCN(C3CCCCC3)CC2)n2c(nc3ccccc32)c1C#N | inhibition | -14.4
O=C(CCNNC(=O)c1ccncc1)NCc1ccccc1 | inhibition | 2.2
O=S(CCc1ccncc1)Cc1ccccc1 (stereo unspecified) | inhibition | -23.4
COc1ccccc1N(Cc1cc2cccc(C)c2[nH]c1=O)C(=O)C(C)C | inhibition | -9.7
COc1cc(-c2nn3c(-c4ccco4)nnc3s2)cc(OC)c1OC | inhibition | -2.2
COc1ccccc1OCC(=O)Nc1ccc(S(=O)(=O)Nc2cc(C)nc(C)n2)cc1 | inhibition | -6.6
O=C(O)CCCCCN1C(=O)CCC1=O | inhibition | -5.6
O=C(c1ccco1)N1CCN(c2ncnc3c2[nH]c2ccccc23)CC1 | inhibition | 0.3
COc1ccc(OCC(O)Cn2c(Nc3cccc(C)c3)nc3c2c(=O)n(C)c(=O)n3C)cc1 (stereo unspecified) | inhibition | -0.2
COC(=O)c1ccccc1NC=C1C(=O)OC2(CCCCC2)OC1=O | inhibition | -9
CCC(=O)Oc1ccc(/C(CC)=C(\CC)c2ccc(OC(=O)CC)cc2)cc1 | inhibition | -4.1
O=C(O)c1ccc(OCCn2ccnc2)cc1 | inhibition | -6.5
N#Cc1c(-c2ccccc2Cl)cc(C2CC2)nc1N | inhibition | -16.2
C1CCC(C(CC2CCCCN2)C2CCCCC2)CC1 (stereo unspecified) | inhibition | 4.5
Clc1ccc2[nH]c3c(NCCN4CCOCC4)ncnc3c2c1 | inhibition | -25
Cc1ccc(S(=O)(=O)N2CCC(N3CCCCCC3)CC2)cc1 | inhibition | -31.4
Cn1c(=O)c2c3c(sc2n2c(SCC(=O)c4ccc(Cl)cc4)nnc12)COC(C)(C)C3 | inhibition | -9.1
CCN1CCc2c(C#N)c(NCc3ccccc3)nc(NCCO)c2C1 | inhibition | -12
Cc1ccc2[nH]c3c(N4CCCCCC4)ncnc3c2c1 | inhibition | -11.4
Cc1nc(SC2C=CS(=O)(=O)C2)n[nH]1 (stereo unspecified) | inhibition | -0.8
CC(C)(C)C1=Nn2c(nnc2-c2ccco2)SC1 | inhibition | -3.7
CC1(C)Cc2c(sc3c2C2=NCCN2C=N3)CS1 | inhibition | -2.6
CN(C)CCOc1ccccc1Cc1ccccc1 | inhibition | 5.9
CC(C)CN1C(=O)NC(NC(=O)c2cccnc2)(C(F)(F)F)C1=O (stereo unspecified) | inhibition | -2.8
COCCOC(=O)C1=C(C)NC(SCC(=O)NC(C)(C)C)=C(C#N)C1c1ccco1 (stereo unspecified) | inhibition | -11.5
CNCCCC12CCC(c3ccccc31)c1ccccc12 | inhibition | -4.8
Cc1ccc(C(=O)/C=C/Nc2cccc(O)c2)cc1 | inhibition | -4.7
CCOC(=O)N1CC=C2C(C#N)=C(N)C(C#N)(C#N)[C@H](c3cccs3)[C@H]2C1 | inhibition | -14.7
Cc1cccc(N2C(=O)CC(N3CCN(Cc4ccc(Cl)cc4)CC3)C2=O)c1 (stereo unspecified) | inhibition | -6.1
COc1ccc(NC(=O)C2CSC3c4ccccc4C(=O)N23)cc1 (stereo unspecified) | inhibition | 0.6
CCn1cc(C(=O)NCc2ccco2)c(=O)c2cc(F)c(N3CCN(C(=O)c4ccco4)CC3)cc21 | inhibition | 16.3
COC(=O)c1cc(Br)c(=O)n(CCc2ccc(F)cc2)c1 | inhibition | -7.1
CCCC(=O)Nc1ccc(OCC(O)CNC(C)C)c(C(C)=O)c1 (stereo unspecified) | inhibition | -4.7
CCOP(=O)(c1ccccc1)c1nc(-c2ccc(F)cc2)oc1N1CCCCC1 (stereo unspecified) | inhibition | 1.8
Cc1cc(C)n(C(=O)CNC(=O)C2COc3ccccc3O2)n1 (stereo unspecified) | inhibition | -7.8
COc1cccc(-c2nnc3sc(C4CCCCC4)nn23)c1 | inhibition | -0.9
CC(=O)Nc1cnc2ccccc2n1 | inhibition | -12.5
COc1ccccc1N1CCN(C2CCN(C(=O)c3cc(OC)c(OC)c(OC)c3)CC2)CC1 | inhibition | -8.3
Cc1nnc(SCC2=C(C(=O)O)N3C(=O)[C@@H](NC(=O)Cn4cnnn4)[C@H]3SC2)s1 | inhibition | -2.9
O=S(=O)(c1ccc(Cl)cc1)N1CCC(N2CCCCCC2)CC1 | inhibition | -23.8
CCCNC(=O)N(C)c1nncnc1C(=O)NC | inhibition | -20.4
Cn1c(=O)c2c(nc(Br)n2CCSc2ncccn2)n(C)c1=O | inhibition | -12.8
COc1cccc(N2C(=O)C(O)=C(C(C)=O)C2c2ccc(OC)c(OC)c2)c1 (stereo unspecified) | inhibition | -3.8
Cc1ccc(S(=O)(=O)N2CCN(c3nc(C)c4c(c3C#N)CC(C)(C)OC4)CC2)cc1 | inhibition | -13.9
COc1cccc(NC(=O)CC2SC(=Nc3ccccc3)NC2=O)c1 (stereo unspecified) | inhibition | 2.2
COC(=O)C(NC(C)=O)(Nc1nc2ccc(S(C)(=O)=O)cc2s1)C(F)(F)F (stereo unspecified) | inhibition | -7.9
